The reported measurements were obtained from ChEMBL document CHEMBL5291721.

# target system: 5-hydroxytryptamine receptor 2B (Homo sapiens, UniProt P41595); note: assay procedure not described here
# Sequence (P41595 whole entry): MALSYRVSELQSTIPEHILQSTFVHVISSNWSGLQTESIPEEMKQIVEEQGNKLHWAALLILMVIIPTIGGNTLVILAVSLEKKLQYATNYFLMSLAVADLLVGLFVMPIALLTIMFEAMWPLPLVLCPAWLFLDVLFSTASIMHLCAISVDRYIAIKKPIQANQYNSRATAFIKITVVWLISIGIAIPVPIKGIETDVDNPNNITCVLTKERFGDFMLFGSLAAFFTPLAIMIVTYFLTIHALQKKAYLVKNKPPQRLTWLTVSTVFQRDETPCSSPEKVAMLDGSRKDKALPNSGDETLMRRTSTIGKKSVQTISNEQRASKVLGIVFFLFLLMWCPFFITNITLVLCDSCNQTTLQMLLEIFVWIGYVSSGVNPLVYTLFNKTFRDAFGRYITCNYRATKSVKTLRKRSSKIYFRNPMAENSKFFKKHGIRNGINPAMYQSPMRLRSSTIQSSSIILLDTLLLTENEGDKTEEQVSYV
# Assay type: functional, cell-based
experimental endpoint: AC50

Ask: // query AC50 value for entry `COC(=O)[C@H]1[C@H]2C[C@@H]3c4[nH]c5cc(OC)ccc5c4CCN3C[C@H]2C[C@@H](OC(=O)/C=C/c2cc(OC)c(OC)c(OC)c2)[C@@H]1OC`
Reply: > 10 µM

Ask: // query AC50 value for entry CCCC(C)C1(CC)C(=O)NC(=O)NC1=O (centres undefined)
Reply: > 10 µM

Ask: // query AC50 value for entry CC1(C)O[C@@H]2C[C@H]3[C@@H]4CCC5=CC(=O)C=C[C@]5(C)[C@H]4[C@@H](O)C[C@]3(C)[C@]2(C(=O)CO)O1 [DESONIDE]
Reply: > 10 µM

Ask: // query AC50 value for entry `Cc1cc(C)c(NC(=O)CN(CC(=O)O)CC(=O)O)c(C)c1Br`
Reply: > 30 µM

Ask: // query AC50 value for entry `C#C[C@]1(O)CC[C@H]2[C@@H]3[C@H](C)CC4=C(CCC(=O)C4)[C@H]3CC[C@@]21C`
Reply: > 30 µM

Ask: // query AC50 value for entry `CS(=O)(=O)c1ccc(C2=C(c3ccccc3)C(=O)OC2)cc1`
Reply: > 30 µM

Ask: // query AC50 value for entry Cc1c(OCC(F)(F)F)ccnc1C[S+]([O-])c1nc2ccccc2[nH]1 (centres undefined)
Reply: > 10 µM

Ask: // query AC50 value for entry COCCCN1CCC(NC(=O)c2cc(Cl)c(N)c3c2OCC3)CC1 [PRUCALOPRIDE]
Reply: > 30 µM

Ask: // query AC50 value for entry `CC=CC(=O)N(CC)c1ccccc1C`
Reply: > 10 µM

###

Task for the reader: assign each of the following molecules its reported AC50.

Ask: AC50 of `CN1CCN(C2=Nc3ccccc3Sc3ccc(Cl)cc32)CC1` on Histamine H1 receptor (Homo sapiens, UniProt P35367)?
Reply: 0.02 µM

Ask: AC50 of `O=C(O)C1=C(CSc2nnnn2CS(=O)(=O)O)CS[C@@H]2[C@H](NC(=O)[C@H](O)c3ccccc3)C(=O)N12` on Histamine H1 receptor (Homo sapiens, UniProt P35367)?
Reply: > 30 µM

Ask: AC50 of C=CCC1(C(C)CC)C(=O)NC(=O)NC1=O (centres undefined) on Histamine H1 receptor (Homo sapiens, UniProt P35367)?
Reply: > 10 µM

Ask: AC50 of `COc1ccc2c3c1O[C@H]1C(=O)CC[C@@]4(O)[C@@H](C2)N(C)CC[C@]314` on Histamine H1 receptor (Homo sapiens, UniProt P35367)?
Reply: > 30 µM

Ask: AC50 of `C[C@H]1COc2c(C3(N)CC3)c(F)cc3c(=O)c(C(=O)O)cn1c23` on Histamine H1 receptor (Homo sapiens, UniProt P35367)?
Reply: > 10 µM

Ask: AC50 of `CN1C(C(=O)Nc2ccccn2)=C(O)c2sc(Cl)cc2S1(=O)=O` on Histamine H1 receptor (Homo sapiens, UniProt P35367)?
Reply: > 10 µM

Ask: AC50 of `CCN1CCN(C(=O)N[C@@H](C(=O)N[C@@H]2C(=O)N3C(C(=O)O)=C(CSc4nnnn4C)CS[C@H]23)c2ccc(O)cc2)C(=O)C1=O` on Histamine H1 receptor (Homo sapiens, UniProt P35367)?
Reply: > 30 µM

Ask: AC50 of `CCCCCNC(=N)N/N=C/c1c[nH]c2ccc(OC)cc12` on Histamine H1 receptor (Homo sapiens, UniProt P35367)?
Reply: > 30 µM

Ask: AC50 of `C#C[C@]1(O)CC[C@H]2[C@@H]3CCc4cc(OC5CCCC5)ccc4[C@H]3CC[C@@]21C` on Histamine H1 receptor (Homo sapiens, UniProt P35367)?
Reply: > 10 µM

Ask: AC50 of NC(=O)CN1CC(O)CC1=O (centres undefined) on Histamine H1 receptor (Homo sapiens, UniProt P35367)?
Reply: > 30 µM

Ask: AC50 of Cc1cccc(C(C)c2cnc[nH]2)c1C (centres undefined) on Histamine H1 receptor (Homo sapiens, UniProt P35367)?
Reply: > 30 µM

Ask: AC50 of OC(CNCC(O)C1CCc2cc(F)ccc2O1)C1CCc2cc(F)ccc2O1 (centres undefined) on Histamine H1 receptor (Homo sapiens, UniProt P35367)?
Reply: > 30 µM

Ask: AC50 of `COc1ccc(-c2ccc3cc(C(=O)O)ccc3c2)cc1C12CC3CC(CC(C3)C1)C2` on Histamine H1 receptor (Homo sapiens, UniProt P35367)?
Reply: > 30 µM

Ask: AC50 of CN1C(=O)CCS(=O)(=O)C1c1ccc(Cl)cc1 (centres undefined) on Histamine H1 receptor (Homo sapiens, UniProt P35367)?
Reply: > 30 µM

Ask: AC50 of `CN(C)CCc1c[nH]c2ccc(C[C@H]3COC(=O)N3)cc12` on Histamine H1 receptor (Homo sapiens, UniProt P35367)?
Reply: > 30 µM

Ask: AC50 of CCOc1ccccc1OCC1CNCCO1 (centres undefined) on Histamine H1 receptor (Homo sapiens, UniProt P35367)?
Reply: > 10 µM

Ask: AC50 of COc1ccc(CCN(C)CCCC(C#N)(c2cc(OC)c(OC)c(OC)c2)C(C)C)cc1OC (centres undefined) on Histamine H1 receptor (Homo sapiens, UniProt P35367)?
Reply: > 30 µM

Ask: AC50 of O=[N+]([O-])O[C@@H]1CO[C@H]2[C@@H]1OC[C@@H]2O [ISOSORBIDE MONONITRATE] on Histamine H1 receptor (Homo sapiens, UniProt P35367)?
Reply: > 10 µM

Ask: AC50 of `O=C(O)CCCCCCCC(=O)O` on Histamine H1 receptor (Homo sapiens, UniProt P35367)?
Reply: > 10 µM
